Please provide measured TGI for the entries that follow.
Test system: RXF-631 renal
Assay: NCI tumour cell line growth inhibition, 48 h

Please indicate TGI recorded for CC1Nc2ccccc2NC1C=C(C#N)C#N (stereo not drawn)
24.4 µM

Please indicate TGI recorded for Nc1ncnc2c1ncn2C1(CO)OC(CO)C(O)C1O (stereo not drawn)
> 100 µM

Please indicate TGI recorded for O=C1C2C3C=CC(C2C(=O)N1CN1CCOCC1)C1C2C(=O)N(CN4CCOCC4)C(=O)C2C31 (stereo not drawn)
74.9 µM

Please indicate TGI recorded for `CCCCCCCCCCCCNC(=S)OCCCC`
> 100 µM

Please indicate TGI recorded for CCCOC(=O)C1C(c2ccc(OC)cc2)NC(c2ccc(OC)cc2)C(C(=O)OCCC)S1(=O)=O (stereo not drawn)
> 100 µM

Please indicate TGI recorded for `CCOC(=O)N1C/C(=C\c2ccc(N(C)C)cc2)C(=O)/C(=C/c2ccc(N(C)C)cc2)C1`
> 100 µM

Please indicate TGI recorded for `COc1c(O)ccc(/C=N/NC(=S)NCOCCOC(C)=O)c1OC`
> 100 µM

Please indicate TGI recorded for Cc1ccc(C)c(NC(=O)C(=O)C(C2C(C)CC(=O)C2CC(=O)O)[N+](=O)[O-])c1 (stereo not drawn)
> 100 µM

----------
System: TK-10 renal
Experiment: NCI tumour cell line growth inhibition, 48 h
Please provide measured TGI for the entries that follow.

Return reported TGI for target or system TK-10 renal, item `COc1cccc(-c2nc(N)c(C#N)c3c2CCS(=O)(=O)c2ccc(C)cc2-3)c1` .
> 100 µM

Return reported TGI for target or system TK-10 renal, item `C=CC(=O)N1CCN(c2nc(OC[C@@H]3CCCN3C)nc3c(F)c(-c4nc(N)cc(C)c4C(F)(F)F)c(Cl)cc23)[C@@H](C)C1` .
4.53 µM

Return reported TGI for target or system TK-10 renal, item C1=C(c2ccccc2)NC2=N[C@H]3CCCC[C@@H]3N2C1c1ccccc1 (stereo not given in full) .
22.1 µM

Return reported TGI for target or system TK-10 renal, item `COc1cc(CNc2ccc(C)cc2)cc(OC)c1OC` .
> 100 µM

Return reported TGI for target or system TK-10 renal, item COc1cccc(C2c3cc4c(cc3OC(N3CCCC3)C2c2ccccc2)OCO4)c1O (stereo not given) .
73.6 µM

Return reported TGI for target or system TK-10 renal, item `COc1ccc2[nH]c(=O)cc(C)c2c1[N+](=O)[O-]` .
> 100 µM

Return reported TGI for target or system TK-10 renal, item `Nc1nc(N)c2ncn(Cc3ccccc3CO)c2n1` .
> 100 µM

Return reported TGI for target or system TK-10 renal, item `Cc1ccnn1CCc1ccc(Cl)cc1Cl` .
48.1 µM

Return reported TGI for target or system TK-10 renal, item `CC(=O)CC(=O)Nc1ccc(OS(N)(=O)=O)cc1` .
> 100 µM

Return reported TGI for target or system TK-10 renal, item `O=C1c2ccccc2C(=O)N1CCN(CCN1C(=O)c2ccccc2C1=O)Cc1ccccc1` .
> 100 µM

----------
System: LXFL 529 NSCLC
Test: NCI tumour cell line growth inhibition, 48 h
Assay endpoint: TGI

Please indicate TGI recorded for `O=C(CC(=O)n1nc(-c2ccccc2)c(N=Nc2ccc([N+](=O)[O-])cc2)c1-c1ccccc1)Nc1ccc(Cl)cc1`
> 100 µM

Please indicate TGI recorded for `CC[n+]1c(/C=C/c2cc(C(=O)OC)n3c2sc2ccccc23)sc2ccccc21`
32.9 µM

Please indicate TGI recorded for `Cc1ccccc1-c1cc(=O)c2cc(C)c(C)c(C(=O)O)c2o1`
> 100 µM

Please indicate TGI recorded for `CCOC(=O)N1C/C(=C\c2ccc(N(C)C)cc2)C(=O)/C(=C/c2ccc(N(C)C)cc2)C1`
> 100 µM

Please indicate TGI recorded for `NC(=O)c1c(-c2ccccc2)c(-c2ccccc2)cc2c(=O)c3ccccc3[nH]c12`
32.7 µM

Please indicate TGI recorded for `C=Cc1c(-c2ccccc2)cnc2[nH]c3ccccc3c12`
> 50 µM

Please indicate TGI recorded for COC(=O)C(C(=O)C(=O)Nc1nc2ccc(OC)cc2s1)c1cnc2ccccc2n1 (stereo not drawn)
> 100 µM

Please indicate TGI recorded for `CCCCCCCCCCCCNC(=S)OCCCC`
> 100 µM
